- Test system: RSV-infected BALB/c mice
- assay: Alveolar fluid clearance (AFC) in RSV-infected mice at day 2 p.i.
- Format: in vivo
- measurement-setup: added to the AFC instillate
- From the text: Preparation of viral inocula and infection of mice. […] J. Physiol. Lung Cell Mol. Physiol. […] Data for each experimental group was derived from a minimum of 2 independent infections. Systemic inhibition of de novo pyrimidine and purine synthesis. […]
reported-endpoint: effect on RSV-mediated inhibition of AFC at day 2 p.i. (in words)

For orientation, consider the following solved cases.
COc1c(C)c2c(c(O)c1C/C=C(\C)CCC(=O)O)C(=O)OC2 ... only a minor effect
Sc1ncnc2nc[nH]c12 ... only a minor effect
O=C(O)c1cccnc1Nc1cccc(C(F)(F)F)c1 ... unaffected
COc1ccc(Cl)cc1C(=O)NCCc1ccc(S(=O)(=O)NC(=O)NC2CCCCC2)cc1 [Glibenclamide] ... unaffected
O=C(O)c1cc([N+](=O)[O-])ccc1NCCCc1ccccc1 ... blocked

Ask: Can you share its effect on RSV-mediated inhibition of AFC at day 2 p.i. (in words)? I mean this compound: CCN(CC)CCOc1ccc(C(=C(Cl)c2ccccc2)c2ccccc2)cc1
Reply: blocked

Ask: Thanks! And C[C@]1(C2CCCC2)Cc2cc(OCC(=O)O)c(Cl)c(Cl)c2C1=O [R(+)-IAA 94] ?
Reply: blocked

This collection of values is drawn from patent US20070219224A1.
